Where these numbers come from: patent US20180008587A1

- targetOrSystem: wild-type Androgen Receptor (AR-wt) (Homo sapiens)
- Construct: expressed in transfected cells; host or cells: LNCaP (LNCaP AR (cs))
- Sequence (P10275 whole entry): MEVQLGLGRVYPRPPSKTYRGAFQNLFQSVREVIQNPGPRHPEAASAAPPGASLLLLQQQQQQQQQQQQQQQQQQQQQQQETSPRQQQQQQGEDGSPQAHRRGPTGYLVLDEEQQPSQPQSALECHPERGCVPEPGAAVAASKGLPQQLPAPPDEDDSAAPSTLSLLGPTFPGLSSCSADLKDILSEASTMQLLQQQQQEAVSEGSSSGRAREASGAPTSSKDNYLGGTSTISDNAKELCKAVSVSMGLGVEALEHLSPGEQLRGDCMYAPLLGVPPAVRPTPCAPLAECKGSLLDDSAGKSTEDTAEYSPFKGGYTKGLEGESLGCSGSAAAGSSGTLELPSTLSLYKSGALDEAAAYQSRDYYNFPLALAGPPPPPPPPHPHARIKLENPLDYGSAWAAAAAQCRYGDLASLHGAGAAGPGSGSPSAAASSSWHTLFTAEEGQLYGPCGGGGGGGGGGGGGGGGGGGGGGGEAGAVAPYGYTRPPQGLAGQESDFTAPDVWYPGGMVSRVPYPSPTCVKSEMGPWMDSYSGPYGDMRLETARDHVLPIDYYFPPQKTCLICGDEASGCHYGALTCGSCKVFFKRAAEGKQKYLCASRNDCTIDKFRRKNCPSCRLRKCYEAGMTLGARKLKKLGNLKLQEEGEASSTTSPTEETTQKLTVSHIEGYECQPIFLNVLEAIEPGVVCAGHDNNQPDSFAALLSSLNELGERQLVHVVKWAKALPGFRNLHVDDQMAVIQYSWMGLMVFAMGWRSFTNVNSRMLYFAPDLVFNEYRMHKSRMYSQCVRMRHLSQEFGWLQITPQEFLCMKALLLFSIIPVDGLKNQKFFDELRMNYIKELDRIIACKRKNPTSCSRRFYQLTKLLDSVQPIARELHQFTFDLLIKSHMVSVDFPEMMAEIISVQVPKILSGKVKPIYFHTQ
- experimentalProtocol: LNCaP-AR-wt ANT reporter assay (ARE firefly luciferase, antagonist mode)
- Format: cell-based
- conditionsUsed: read-out: LNCaP-AR-wt ANT MAX % Inh
Below: a set of entries, each annotated with reported Emax.
Respond numerically; units are % and should not be typed.

Reference set (5 entries):
1. Cc1cc(N2C(=O)C3(CCC3)N(c3ccc(C(=O)NC4CCOCC4)c(F)c3)C2=S)cnc1C#N
98.1
2. N#Cc1ncc(N2C(=O)C3(CCC3)N(c3ccc(Oc4cncnc4)cc3)C2=S)cc1C(F)(F)F
97.2
3. N#Cc1ncc(N2C(=O)C3(CCC3)N(c3cccnc3)C2=S)cc1C(F)(F)F
99
4. CC(C)CCNC(=O)c1ccc(N2C(=S)N(c3cnc(C#N)c(C(F)(F)F)c3)C(=O)C23CCC3)cc1F
96.8
5. N#Cc1ncc(N2C(=O)C3(CCC3)N(c3ccc4ccncc4c3)C2=S)cc1C(F)(F)F
101

Briefly, Emax measured for N#Cc1ncc(N2C(=O)C3(CCC3)N(c3ccc(OCCCN4CCCC4)c(F)c3)C2=S)cc1C(F)(F)F : 101

Memo: CCCNC(=O)c1ccc(N2C(=S)N(c3cnc(C#N)c(C(F)(F)F)c3)C(=O)C23CCC3)cc1F , reported Emax: 96.7

Summary for this compound, CN1CCC(Oc2ccc(N3C(=S)N(c4cnc(C#N)c(C(F)(F)F)c4)C(=O)C3(C)C)cc2)CC1 : Emax is 99.6
